# assay.method.text: Brain biodistribution study (LC-MS)
# measurement.setup: C57BL/6, mouse, in vivo, iv
Structures can show the parent of a compound that is named as a salt.
measured.property: Tmax
Could you kindly put the unit after your number?

Data request, read-out Tmax, for Cc1nc(C)c(C)nc1C [TMP, tetramethylpyrazine hydrochloride]
4.98 min

---

Can you tell me bioavailability for the items I'm about to list?
# assay.method.text: Brain biodistribution study (LC-MS)
# measurement.setup: C57BL/6, mouse, brain, other: intranasal
# Method: The C57BL/6 mouse cerebral malaria model was established according to the method of “In vivo antimalarial experiment”. The model mice were randomly divided into the intranasal administration group (na-ATS/TMP@lipoBX) and tail vein injection group (iv-ATS/TMP@lipoBX). […] Mice were euthanized and the brains were dissected. […] The brain homogenates were processed according to the processing method for the plasma sample, and LC–MS quantitative analysis was carried out. […]

# molecule, reported
measured = [
    ("C[C@H]1[C@H](OC(=O)CCC(=O)O)O[C@@H]2O[C@@]3(C)CC[C@H]4[C@H](C)CC[C@@H]1[C@@]24OO3 [ATS, artesunate]", "~415%"),
]

Now, please, on to the next molecule.
What bioavailability value was documented for this molecule, C[C@H]1[C@@H](O)O[C@@H]2O[C@@]3(C)CC[C@H]4[C@H](C)CC[C@@H]1[C@@]24OO3 [DHA, dihydroartemisinin] ?
~449%

---

# assay.method.text: Brain biodistribution study (LC-MS)
# measurement.setup: C57BL/6, mouse, in vivo
Where a name gives a salt, the structure may show the parent alone.
measured.property: bioavailability

Consider the compound Cc1nc(C)c(C)nc1C [TMP, tetramethylpyrazine hydrochloride] and give its measured bioavailability.
~183%

---

# assay.method.text: Pharmacokinetic study in plasma (LC-MS)
# measurement.setup: C57BL/6, mouse, in vivo, inhaled or intranasal
# Description: The C57BL/6 mouse cerebral malaria model was established according to the method of “In vivo antimalarial experiment”. […] Blood samples were collected at 5 min, 10 min, 15 min, 30 min, 45 min, 1 h, 2 h, 4 h, 8 h, 12 h and 24 h after administration. […] Subsequently, methanol was added to the plasma in the ratio of 1:2 (plasma-methanol) and centrifuged at 14,000 rpm for 5 min to obtain liquid supernatant for quantitative analysis by LC–MS. […]
Structures can show the parent of a compound that is named as a salt.
measured.property: Tmax (min)
Numbers only, in min.

// lookup Tmax for Cc1nc(C)c(C)nc1C [TMP, tetramethylpyrazine hydrochloride]
4.98

---

# assay.method.text: Brain biodistribution study (LC-MS)
# measurement.setup: C57BL/6, mouse, brain, inhaled or intranasal
measured.property: Tmax (h)
Give bare numbers, in h.

# molecule, reported
data = [
    ("C[C@H]1[C@@H](O)O[C@@H]2O[C@@]3(C)CC[C@H]4[C@H](C)CC[C@@H]1[C@@]24OO3 [DHA, dihydroartemisinin]", 0.396),
]

The record that follows has no Tmax shown yet.
Param item = C[C@H]1[C@H](OC(=O)CCC(=O)O)O[C@@H]2O[C@@]3(C)CC[C@H]4[C@H](C)CC[C@@H]1[C@@]24OO3 [ATS, artesunate] ; retrieve measured Tmax.
3.5

---

# assay.method.text: Brain biodistribution study (LC-MS)
# measurement.setup: C57BL/6, mouse, in vivo, inhaled or intranasal
Structures can show the parent of a compound that is named as a salt.
measured.property: Tmax (min)
One number for each entry, in min.

Report Tmax for Cc1nc(C)c(C)nc1C [TMP, tetramethylpyrazine hydrochloride] please.
4.98

---

# assay.method.text: Brain biodistribution study (LC-MS)
# measurement.setup: C57BL/6, mouse, brain, iv
measured.property: Tmax (h)
Give bare numbers, in h.

# compound, unit.abbreviation, Tmax
rows = [
    ("C[C@H]1[C@@H](O)O[C@@H]2O[C@@]3(C)CC[C@H]4[C@H](C)CC[C@@H]1[C@@]24OO3 [DHA, dihydroartemisinin]", "h", 0.125),
]

Consider now this further compound.
Given the entry C[C@H]1[C@H](OC(=O)CCC(=O)O)O[C@@H]2O[C@@]3(C)CC[C@H]4[C@H](C)CC[C@@H]1[C@@]24OO3 [ATS, artesunate] , report its measured Tmax.
8.25

The values you see were collected from paper PMC9258070.
